Target: Potassium Channel hERG (Homo sapiens)
Sequence (Q12809 whole entry): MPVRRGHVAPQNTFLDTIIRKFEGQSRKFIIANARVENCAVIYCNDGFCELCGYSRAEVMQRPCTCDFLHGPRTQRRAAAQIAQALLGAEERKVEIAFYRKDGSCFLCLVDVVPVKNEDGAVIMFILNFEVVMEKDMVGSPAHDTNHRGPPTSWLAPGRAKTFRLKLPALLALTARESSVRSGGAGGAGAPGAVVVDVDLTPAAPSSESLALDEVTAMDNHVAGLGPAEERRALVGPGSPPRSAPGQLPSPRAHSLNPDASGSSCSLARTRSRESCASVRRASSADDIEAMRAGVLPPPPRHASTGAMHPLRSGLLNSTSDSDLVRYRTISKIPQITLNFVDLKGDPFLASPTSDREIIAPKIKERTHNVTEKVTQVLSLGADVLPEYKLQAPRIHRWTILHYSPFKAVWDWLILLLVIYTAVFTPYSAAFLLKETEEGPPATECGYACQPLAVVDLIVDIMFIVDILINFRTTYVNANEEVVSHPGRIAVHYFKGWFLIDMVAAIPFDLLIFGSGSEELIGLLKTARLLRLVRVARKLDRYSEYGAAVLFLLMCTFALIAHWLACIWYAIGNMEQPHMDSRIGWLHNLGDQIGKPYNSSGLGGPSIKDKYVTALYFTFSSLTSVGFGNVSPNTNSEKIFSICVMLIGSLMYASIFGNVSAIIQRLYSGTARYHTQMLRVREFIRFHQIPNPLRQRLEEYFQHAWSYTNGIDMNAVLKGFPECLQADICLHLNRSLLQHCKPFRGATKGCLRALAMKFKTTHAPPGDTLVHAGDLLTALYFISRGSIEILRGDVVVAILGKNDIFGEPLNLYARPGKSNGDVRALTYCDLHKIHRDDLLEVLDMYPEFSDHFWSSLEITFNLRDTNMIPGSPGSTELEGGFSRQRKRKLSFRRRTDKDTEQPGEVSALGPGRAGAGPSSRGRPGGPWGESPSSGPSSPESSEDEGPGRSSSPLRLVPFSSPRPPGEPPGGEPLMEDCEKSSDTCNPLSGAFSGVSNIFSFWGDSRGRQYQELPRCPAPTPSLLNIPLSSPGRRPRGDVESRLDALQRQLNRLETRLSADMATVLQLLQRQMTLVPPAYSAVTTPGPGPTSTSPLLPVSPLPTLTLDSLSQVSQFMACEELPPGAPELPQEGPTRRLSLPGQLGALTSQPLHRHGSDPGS
Assay: in vitro
Experimental Readout: inhibition at 10 µM (%)

>>> print(df.to_string())
                                  compound                          system_tested  observed
0  CC(C)(C)c1ccc(C2=C(/C=N/O)CCC2)cc1 [8n]  Potassium Channel hERG (Homo sapiens)        25
